# System: Escherichia coli Nissle 1917
# METHOD: area under OmniLog respiration curve over 48 h (OmniLog units x h); higher = more growth / nutrient utilisation; extreme values may be limits of the assay
# STATED CONDITIONS: nutrient role: sole phosphorus source (pyruvate carbon); incubation: 48 h, 37 °C
TEST READOUT: area under OmniLog respiration curve
Answer with a number only.

// worked examples, area under OmniLog respiration curve included
Nc1ncnc2c1ncn2[C@@H]1O[C@H](CO)[C@@H](O)[C@H]1OP(=O)(O)O [Adenosine 2`-Monophosphate] :: 9880
O=P(O)(O)O[C@H]1O[C@H](CO)[C@@H](O)[C@H](O)[C@@H]1O [D-Mannose-1-Phosphate] :: 9100

Please examine the following record next.
GET /value?item= Nc1ccn([C@@H]2O[C@H](CO)[C@@H](OP(=O)(O)O)[C@H]2O)c(=O)n1 [Cytidine 3`-Monophosphate] &field=area under OmniLog respiration curve returns 4.72
